ASSAY_EXPLANATION: Lipophilicity, log K of the compound
Assay type: physicochemical
STATED_CONDITIONS: RP-HPLC capacity factor, C18 column, methanol mobile phase
ASSAY_READOUT: log K

CCCCCCCCCCNC(=O)Oc1ccc(Cl)cc1C(=O)Nc1cccc(Cl)c1    0.7873
CCCCCCCCCNC(=O)Oc1ccc(Cl)cc1C(=O)Nc1ccc(Cl)cc1    0.7919
CCCCCNC(=O)Oc1ccc(Cl)cc1C(=O)Nc1ccc(Cl)c(Cl)c1    1.0601
CCCCNC(=O)Oc1ccc(Cl)cc1C(=O)Nc1cccc(Cl)c1    0.7611
CCCCCCCCNC(=O)Oc1ccc(Cl)cc1C(=O)Nc1cccc(Cl)c1    0.7831

###

ASSAY_EXPLANATION: Lipophilicity, log K of the compound
Assay type: physicochemical
STATED_CONDITIONS: RP-HPLC capacity factor, C18 column, methanol mobile phase
ASSAY_READOUT: log K

CCCCCCCCNC(=O)Oc1ccc(Cl)cc1C(=O)Nc1ccc(Cl)c(Cl)c1    1.0845
CCCCCCCCCCCNC(=O)Oc1ccc(Cl)cc1C(=O)Nc1cccc(Cl)c1    0.7902
CCCCCCCCCCCNC(=O)Oc1ccc(Cl)cc1C(=O)Nc1ccc(Cl)cc1    0.7947
CCCCCNC(=O)Oc1ccc(Cl)cc1C(=O)Nc1ccc(Cl)cc1    0.7838
CCNC(=O)Oc1ccc(Cl)cc1C(=O)Nc1ccc(Cl)c(Cl)c1    1.0234

Measured values drawn from ChEMBL document CHEMBL3046818 for this set.
